- Tested on: Human primary neonatal foreskin fibroblasts (CRL2097)
- ASSAY: Generation of iMSCs from fibroblasts by chemical treatment, flow cytometry for SSEA-4 and PODXL
- Type: cell-based
- RECORDED_CONDITIONS: Table 2: other factors or a combination, tested in the same manner; CRL2097 fibroblasts; DMEM only 0.1%
ASSAY_READOUT: Percentage of cells with both SSEA-4 and PODXL (%)
Use % as the unit, but write only the number.

Examples from the recorded data:
>>> number("C[C@@H](N)[C@H]1CC[C@H](C(=O)Nc2ccncc2)CC1 [Y27632]")
0.50
>>> number("O=c1cc(N2CCOCC2)oc2c(-c3ccccc3)cccc12 [LY294002]")
0.80
>>> number("C[S+]([O-])c1ccc(-c2nc(-c3ccc(F)cc3)c(-c3ccncc3)[nH]2)cc1 (stereo not drawn) [SB203580]")
0.10

Q. Answer with the recorded Percentage of cells with both SSEA-4 and PODXL of COc1ccc(C2CNC(=O)C2)cc1OC1CCCC1 (stereo not drawn) [Rolipram] only.
A. 0.30

Q. Fill in reported Percentage of cells with both SSEA-4 and PODXL for this entry: O=C(NOC[C@@H](O)CO)c1ccc(F)c(F)c1Nc1ccc(I)cc1F [PD0325901]
A. 0.40

Q. Fill in reported Percentage of cells with both SSEA-4 and PODXL for this entry: CCCC(CCC)C(=O)O [VPA, 2-Propylpentanoic acid]
A. 0.2

Q. Supply measured Percentage of cells with both SSEA-4 and PODXL of CC(=O)N[C@@H](CS)C(=O)O [NAC, N-Acetylcysteine] in your reply.
A. 0.50

Q. Read off the recorded Percentage of cells with both SSEA-4 and PODXL for Cc1nc(Nc2ncc(C(=O)Nc3c(C)cccc3Cl)s2)cc(N2CCN(CCO)CC2)n1 [Dasatinib]
A. 0.40

Q. State its Percentage of cells with both SSEA-4 and PODXL for this compound: CCCC(=O)[O-].[Na+] [Sodium butyrate]
A. 0.70

Q. State, in one line, measured Percentage of cells with both SSEA-4 and PODXL of O=C1O[C@H]([C@@H](O)CO)C(O)=C1O [VitC, ascorbic acid]
A. 0.60

Q. Please indicate Percentage of cells with both SSEA-4 and PODXL recorded for COc1cc2nc(N3CCCN(C)CC3)nc(NC3CCN(Cc4ccccc4)CC3)c2cc1OC [BIX01294]
A. 0.30

Q. Entry NC(=O)c1ccc(-c2nc(-c3ccc4c(c3)OCO4)c(-c3ccccn3)[nH]2)cc1 [SB431542] needs its Percentage of cells with both SSEA-4 and PODXL filled in; supply it.
A. 0.40

Q. Identify measured Percentage of cells with both SSEA-4 and PODXL associated with Oc1ccc(-c2nc(-c3ccncc3)c(-c3ccc(F)cc3)[nH]2)cc1 [SB202190]
A. 0.10

Q. Given CO[C@H]1C[C@@H]2CC[C@@H](C)[C@@](O)(O2)C(=O)C(=O)N2CCCC[C@H]2C(=O)O[C@H]([C@H](C)C[C@@H]2CC[C@@H](O)[C@H](OC)C2)CC(=O)[C@H](C)/C=C(\C)[C@@H](O)[C@@H](OC)C(=O)[C@H](C)C[C@H](C)/C=C/C=C/C=C/1C [Rapamycin] , respond with its Percentage of cells with both SSEA-4 and PODXL.
A. 0.20

Q. Specify measured Percentage of cells with both SSEA-4 and PODXL for O=S(=O)(c1cccc2cnccc12)N1CCCNCC1 [Fasudil] .
A. 0.20

Q. Give me measured Percentage of cells with both SSEA-4 and PODXL, please, for this compound: O=C1c2ccccc2-c2n[nH]c3cccc1c23 [SP600125]
A. 0.20

Q. Provide only the value of recorded Percentage of cells with both SSEA-4 and PODXL for c1cc(-c2cnn3cc(-c4ccc(OCCN5CCCCC5)cc4)cnc23)ccn1 [Dorsomorphin]
A. 0.10
